- System: Sam68 (KHDRBS1)
- assay_overview: Sam68 small-molecule binders, primary screen, biochemical, small-molecule microarray, 635 nm fluorescence (AID 1125);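 note: score merges 667 nm channel intensity with signal to noise over triplicate slides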
- measurement_setup: small-molecule microarray binding, higher = more signal
Threshold rule: composite z-score greater than or equal to 0.8 is rule met; below that, rule not met.

{"columns": ["molecule", "label"],
 "data": [
  ["CC=CC(O)C1C=CC2C(=O)N(C)C(=O)C2N1N1CCCCC1 (stereo not drawn)", "rule met"],
  ["COCCCNC(=O)[C@@]1(Sc2ccc(C)cc2)CC(=O)N(C2Cc3ccccc3C2)[C@@H]1c1ccc(CO)cc1I", "rule not met"],
  ["C=CCN1C(=O)[C@@]2(O[C@@H](CCn3cc([C@H](O)c4ccccc4)nn3)[C@H]([Si](C)(C)c3ccc(OC)cc3)[C@H]2C)c2ccccc21", "rule met"],
  ["NC(=O)NCC#Cc1ccc2c(c1)[C@]1(C(=O)N2)[C@H](C(=O)Nc2nc3ccccc3s2)[C@H]2C(=O)O[C@H](c3ccccc3)[C@H](c3ccccc3)N2[C@@H]1c1ccc(O)cc1", "rule met"],
  ["CC(C)C(O)C1C=CC2C(=O)N(C)C(=O)C2N1Nc1ccccc1 (stereo not drawn)", "rule met"],
  ["CCOC(=O)C1=CC[C@@H](c2cc(Cl)ccc2Cl)N(S(=O)(=O)c2ccc(C)cc2)[C@H]1c1ccc(OC)cc1", "rule not met"],
  ["COC(=O)C1(Cc2ccccc2)C=C2C(=C(C(C)C)C(=O)C2C)CN1 (stereo not drawn)", "rule not met"],
  ["O=C(CCCCCCC(=O)Nc1ccccc1)N/N=C/c1ccccc1", "rule not met"]
]}

* * *

- Tested on: Wnt5a (protein binding on small-molecule microarray)
- assay_overview: Wnt5a binders on small-molecule microarray, primary screen, biophysical, 635/667 nm fluorescence (AID 1142);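 note: fluorescence read at 667 nm with signal to noise per printed feature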
- measurement_setup: 635 nm fluorescence, higher = more signal
Threshold rule: composite z-score greater than or equal to 0.5 is y; below that, n.

{"columns": ["molecule_smiles", "measured_on", "label"],
 "data": [
  ["NCCCCCCNC(=O)[C@H]1C[C@H]2C(=O)N[C@@H](Cc3ccccc3)C(=O)N2[C@H]1c1ccc(O)cc1", "Wnt5a (protein binding on small-molecule microarray)", "n"],
  ["C=CCN1C(=O)[C@@]2(O[C@@H](CCO)[C@H]([Si](C)(C)c3ccc(OC)cc3)[C@H]2C)c2cc(N3C(=O)c4ccccc4Oc4ccccc43)ccc21", "Wnt5a (protein binding on small-molecule microarray)", "n"],
  ["CN(C)CCCNC(=O)[C@@]1(c2ccc([N+](=O)[O-])cc2)CC(=O)N(CC23CC4CC(CC(C4)C2)C3)[C@@H]1c1ccc(CO)cc1", "Wnt5a (protein binding on small-molecule microarray)", "n"],
  ["C=C(CCCC)C(=O)CC[C@@H](OC(=O)c1ccccc1-c1ccccc1C(=O)O)c1cccc(OCCO)c1", "Wnt5a (protein binding on small-molecule microarray)", "n"],
  ["COC(=O)[C@@]1(Cc2ccc(F)cc2)[C@H]2c3cc(C(=O)N4CCCC4)n(CCF)c3C[C@H]2CN1C(=O)c1ccccc1", "Wnt5a (protein binding on small-molecule microarray)", "y"],
  ["C=CCNC(=O)[C@@H]1[C@H]2C(=O)O[C@H](c3ccccc3)[C@H](c3ccccc3)N2[C@H](c2ccc(OCCO)cc2)[C@@]12C(=O)N(C(=O)OCCOC)c1ccc(C#CC3=CCCCC3)cc12", "Wnt5a (protein binding on small-molecule microarray)", "n"],
  ["[N-]=[N+]=NCc1ccccc1C[C@@]1(C(N)=O)N=C(c2ccc(OCCCO)cc2)O[C@@H]1c1ccccc1CN=[N+]=[N-]", "Wnt5a (protein binding on small-molecule microarray)", "y"]
]}
